System: OVCAR-8
Assay: Antitumor activity against human OVCAR8 cells assessed as cell growth at 10 uM after 48 hrs by sulforhodamine B assay
Type: functional
Settings: OVCAR-8, 48 h, read-out: Activity
Overview of recorded growth at 10 µM for various molecules
Give a bare numeral; the unit % is implied.

CN1C/C(=C\c2ccc(-c3cccs3)cc2)C(=O)[C@]2(C1)[C@@H](c1ccc(-c3cccs3)cc1)CN(C)[C@@]21C(=O)N(C)c2ccccc21 : 65.7
CN1C/C(=C\c2ccc(Cl)cc2)C(=O)[C@]2(C1)[C@@H](c1ccc(Cl)cc1)CN(C)[C@@]21C(=O)N(C)c2ccccc21 : 79.5
COc1ccc(/C=C2\CN(C)C[C@@]3(C2=O)[C@@H](c2ccccc2)CN(C)[C@@]32C(=O)Nc3ccccc32)cc1 : 52.4

Please look up its growth at 10 µM: CN1C/C(=C\c2ccc(Cl)cc2)C(=O)[C@]2(C1)[C@@H](c1ccc(Cl)cc1)CN(C)[C@@]21C(=O)Nc2ccccc21
69.4
